target: Kappa-type opioid receptor (Homo sapiens); assay: Displacement of [125I]IOXY from human kappa opioid receptor expressed in CHO cells coexpressing human recombinant KOP after 2 hrs by liquid scintillation counting; type: cell-based; conditions: cho
Sequence (P41145 whole entry): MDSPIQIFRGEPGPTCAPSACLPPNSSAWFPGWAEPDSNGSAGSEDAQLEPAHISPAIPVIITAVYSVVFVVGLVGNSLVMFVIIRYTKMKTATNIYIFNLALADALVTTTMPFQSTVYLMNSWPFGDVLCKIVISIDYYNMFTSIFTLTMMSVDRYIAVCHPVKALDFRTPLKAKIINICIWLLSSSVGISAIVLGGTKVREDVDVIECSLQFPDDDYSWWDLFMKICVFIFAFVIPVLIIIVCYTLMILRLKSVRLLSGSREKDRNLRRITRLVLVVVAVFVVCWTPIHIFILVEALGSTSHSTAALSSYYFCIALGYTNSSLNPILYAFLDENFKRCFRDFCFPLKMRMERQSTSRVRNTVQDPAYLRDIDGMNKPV
measurementType: Ki (nM)
Record the value in nM, omitting the unit from your answer.

Per the records, this molecule ( Oc1cccc2c1O[C@H]1CC[C@@H]3C[C@]21CCN3CCc1ccccc1 ) has Ki equal to 367

###

biological target: UniProt:P35372; settings: CHO
Sequence (P35372 whole entry): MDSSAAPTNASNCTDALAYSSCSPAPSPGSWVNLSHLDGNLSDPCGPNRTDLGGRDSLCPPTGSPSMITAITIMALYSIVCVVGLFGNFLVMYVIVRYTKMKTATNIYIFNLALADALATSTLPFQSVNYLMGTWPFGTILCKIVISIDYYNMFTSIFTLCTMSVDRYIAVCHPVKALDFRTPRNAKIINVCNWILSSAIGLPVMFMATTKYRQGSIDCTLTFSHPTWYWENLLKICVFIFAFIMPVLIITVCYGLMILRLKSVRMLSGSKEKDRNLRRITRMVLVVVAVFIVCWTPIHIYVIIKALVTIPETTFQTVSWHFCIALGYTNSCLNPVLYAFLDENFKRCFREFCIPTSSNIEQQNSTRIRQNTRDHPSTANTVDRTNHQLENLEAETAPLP
Description: Antagonist activity at human mu opioid receptor expressed in CHO cells coexpressing human recombinant MOR after 3 hrs by [35S]GTPgammaS binding assay
measurementType: Ke (nM)
Record the value in nM, omitting the unit from your answer.

Illustrative cases are given below, each with its answer.
Per the records, this molecule ( Oc1cccc2c1O[C@@H]1CC[C@H]3C[C@@]21CCN3CCc1ccccc1 ) has Ke equal to 31

Per the records, this molecule ( Oc1ccc2c(c1)[C@]13CCN(CCc4ccccc4)[C@H](CC[C@H]1O2)C3 (racemic) ) has Ke equal to 23

Per the records, this molecule ( Oc1cccc2c1O[C@H]1CC[C@@H]3C[C@]21CCN3CCc1ccccc1 ) has Ke equal to 328

***
Per the records, this molecule ( Oc1ccc2c(c1)[C@]13CCN(CCc4ccccc4)[C@H](CC[C@@H]1O2)C3 ) has Ke equal to 47

Per the records, this molecule ( Oc1ccc2c(c1)[C@@]13CCN(CCc4ccccc4)[C@@H](CC[C@H]1O2)C3 ) has Ke equal to 227

Per the records, this molecule ( Oc1cccc2c1O[C@@H]1CC[C@@H]3C[C@]21CCN3CCc1ccccc1 (racemic) ) has Ke equal to 274

Origin of values: ChEMBL document CHEMBL1806350
